# STUDY SYSTEM: pepsin (Sus scrofa)
# Sequence (P00791 60-385): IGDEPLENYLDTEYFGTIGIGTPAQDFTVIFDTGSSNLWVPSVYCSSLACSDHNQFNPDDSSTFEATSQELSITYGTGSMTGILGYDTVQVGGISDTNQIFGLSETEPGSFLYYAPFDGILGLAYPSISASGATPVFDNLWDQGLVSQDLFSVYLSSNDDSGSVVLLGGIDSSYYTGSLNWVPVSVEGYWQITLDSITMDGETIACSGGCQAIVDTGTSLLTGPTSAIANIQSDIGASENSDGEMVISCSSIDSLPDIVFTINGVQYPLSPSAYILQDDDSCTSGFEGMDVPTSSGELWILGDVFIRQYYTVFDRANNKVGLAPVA
# ASSAY REMARKS: in vitro
# PARTICULARS: simulated gastric fluid, pH 1.2
Starred links: 1 amine or outer side, 2 acyl side, 3 side chain; linkers in the order of their positions; H or OH if unused. Non-standard residues stand in square brackets, D forms with d. Residues, ends and D or L forms follow the SMILES beside them. X1 = CC(C)C[C@H](NC(=S)[C@H](Cc1ccc(O)cc1)N[*:1])C(=O)[*:2]; NMeL = CN[C@@H](CC(C)C)C(=O)O
READOUT NAME: remaining at 1 h (%)

I. CC(C)C[C@@H]1NC(=O)[C@@H](CC(C)C)NC(=O)[C@H](CC(C)C)NC(=S)[C@H](Cc2ccc(O)cc2)NC(=O)[C@H]2CCCN2C(=O)[C@H](CC(C)C)NC1=O [10e] (cyclo(LL[dP][X1][dL]))
II. CC(C)C[C@@H]1NC(=O)[C@H](Cc2ccc(O)cc2)NC(=O)[C@H]2CCCN2C(=O)[C@H](CC(C)C)N(C)C(=O)[C@H](CC(C)C)NC(=O)[C@@H](CC(C)C)NC1=O [10i] (cyclo(L[NMeL][dP]YL[dL]))
Lab note: record which item had the higher remaining at 1 h, I or II . Kindly state the label of the option you pick.
I
(I: 61%, II: 17%)

The values you see were collected from paper PMC10539501.
